Exercise: for every item that follows, state its recorded selectivity ratio at 48 h.
- Test Method Notes: Selectivity index, ratio of Cytotoxicity against African green monkey Vero cells assessed as reduction in cell viability after 48 hrs by SRB assay to Antiviral activity against acyclovir-sensitive Herpes simplex virus 1 KOS infected in African green monkey Vero cells assessed as inhibition of viral replication after 48 hrs by naphthol blue-black staining-based plaque reduction assay
- Type: toxicity
- Condition Label: Vero cells infected with HSV-1 KOS, read-out: Ratio CC50/IC50
Write the value as a bare number.

selectivity ratio at 48 h recorded for this compound, C[C@]12CC[C@H](O)C[C@H]1CC[C@@H]1[C@@H]2CC[C@]2(C)[C@@H](C3=CC(=O)OC3)CC[C@]12O [DIGITOXIGENIN] , is 25.3

Notebook: `C[C@]12CC[C@H](n3cc(CO[C@@H]4O[C@H](CO)[C@H](O)[C@H](O)[C@H]4O)nn3)C[C@H]1CC[C@@H]1[C@@H]2CC[C@]2(C)[C@@H](C3=CC(=O)OC3)CC[C@]12O` , selectivity ratio at 48 h read as 296

Memo: `CC(=O)OC[C@H]1O[C@@H](OCc2cn([C@H]3CC[C@@]4(C)[C@H](CC[C@@H]5[C@@H]4CC[C@]4(C)[C@@H](C6=CC(=O)OC6)CC[C@]54O)C3)nn2)[C@H](OC(C)=O)[C@@H](OC(C)=O)[C@@H]1OC(C)=O` , reported selectivity ratio at 48 h: 45.5

Measured selectivity ratio at 48 h, `C[C@]12CC[C@H](NC(=O)CCl)C[C@H]1CC[C@@H]1[C@@H]2CC[C@]2(C)[C@@H](C3=CC(=O)OC3)CC[C@]12O` : 122

selectivity ratio at 48 h for `C[C@]12CC[C@H](n3cc(CO[C@@H]4O[C@H](CO)[C@@H](O[C@H]5O[C@H](CO)[C@@H](O)[C@H](O)[C@H]5O)[C@H](O)[C@H]4O)nn3)C[C@H]1CC[C@@H]1[C@@H]2CC[C@]2(C)[C@@H](C3=CC(=O)OC3)CC[C@]12O` is 34.3

`CC(=O)OC[C@H]1O[C@H](OCc2cn([C@H]3CC[C@@]4(C)[C@H](CC[C@@H]5[C@@H]4CC[C@]4(C)[C@@H](C6=CC(=O)OC6)CC[C@]54O)C3)nn2)[C@@H](OC(C)=O)[C@@H](OC(C)=O)[C@@H]1OC(C)=O` has a reported selectivity ratio at 48 h of 39
